Cited source for all entries: paper PMC9073132

# Type: in vivo, Wistar rats
# measurement.setup: male, Wistar, rat, plasma, po, 200 mg/kg
Reported MRT last values for a set of molecules
Numeric answer only, unit min assumed.

Example entries begin here.
[
  {
    "molecule": "CC(=O)O[C@H]1[C@H]2O[C@]23[C@@H]2CC[C@@H]4C[C@@H](O)CC[C@]4(C)[C@H]2CC[C@]3(C)[C@H]1c1ccc(=O)oc1 [CS23, cinobufagin]",
    "MRT last [min]": 54.8
  },
  {
    "molecule": "C[C@]12CC[C@H](O)C[C@H]1CC[C@@H]1[C@@H]2CC[C@]2(C)[C@@H](c3ccc(=O)oc3)CC[C@]12O [CS21, bufalin]",
    "MRT last [min]": 88.6
  }
]

--- query ---
**Q:** Query (molecule): C[C@]12CC[C@H](O)C[C@@]1(O)CC[C@@H]1[C@@H]2CC[C@]2(C)[C@@H](c3ccc(=O)oc3)CC[C@]12O [CS14, telocinobufagin] ; field requested: MRT last
**A:** 55.9
